B1: 3'-5' exoribonuclease 1, residues 65 to 114; numbered along this chain, Q8IV48 (parent)
chain: VYKEIAITNGCINRMSKEELRAKLSEFKLETRGVKDVLKKRLKNYYKKQK

variants of: B1; experiment: abundance fitness (aPCA) (normalised: wild type 0, dead -1); higher = more abundant; growth selection in yeast, the domain comes from the species named; conditions: Homo sapiens
I would appreciate it if you labelled entries yes when abundance fitness is -0.4 or higher, otherwise no.

VYKEIHITNGCINRMSKEELRAKLSEFKLETRGVKDVLKKRLKNYYKKQK [A6H] ... yes
VYKEIAITNGCINRMSKEEVRAKLSEFKLETRGVKDVLKKRLKNYYKKQK [L20V] ... no
VYKEIAITNGCINRMSKEELRAKLSEFKPETRGVKDVLKKRLKNYYKKQK [L29P] ... no
VYKEIAITNGCIIRMSKEELRAKLSEFKLETRGVKDVLKKRLKNYYKKQK [N13I] ... no
VYGEIAITNGCINRMSKEELRAKLSEFKLETRGVKDVLKKRLKNYYKKQK [K3G] ... yes
VYKEIAITNGCINRESKEELRAKLSEFKLETRGVKDVLKKRLKNYYKKQK [M15E] ... no
VYKEIAITNGCINRMSGEELRAKLSEFKLETRGVKDVLKKRLKNYYKKQK [K17G] ... no
VYFEIAITNGCINRMSKEELRAKLSEFKLETRGVKDVLKKRLKNYYKKQK [K3F] ... yes
VYKEIAITNGCINRMSKEELRAKLSEFKLETRGVKDVYKKRLKNYYKKQK [L38Y] ... no
VYKEIAITNGCINRMSKEELRAKLSEFKLETRGKKDVLKKRLKNYYKKQK [V34K] ... yes
VYKEIAITNGCINRMSKEYLRAKLSEFKLETRGVKDVLKKRLKNYYKKQK [E19Y] ... no
VYKEIAITNGCINRMSKHELRAKLSEFKLETRGVKDVLKKRLKNYYKKQK [E18H] ... yes
VYKEIAITNGCINRMSKEELRAKLLEFKLETRGVKDVLKKRLKNYYKKQK [S25L] ... yes
VYKEIAITNGCINRMSKEKLRAKLSEFKLETRGVKDVLKKRLKNYYKKQK [E19K] ... yes
VYKEIAITCGCINRMSKEELRAKLSEFKLETRGVKDVLKKRLKNYYKKQK [N9C] ... yes
VYKEIAITNGCINRMSKEELRAKLSEFKLETRGVKDLLKKRLKNYYKKQK [V37L] ... no
VYKEIAITNGCINRMSKEELRAKLSMFKLETRGVKDVLKKRLKNYYKKQK [E26M] ... yes
VYKEIAITNGCINRMSKEELLAKLSEFKLETRGVKDVLKKRLKNYYKKQK [R21L] ... no
CYKEIAITNGCINRMSKEELRAKLSEFKLETRGVKDVLKKRLKNYYKKQK [V1C] ... yes
VYKEIAITNGCINRMSKEELRAKLSFFKLETRGVKDVLKKRLKNYYKKQK [E26F] ... yes
VYKEIAITTGCINRMSKEELRAKLSEFKLETRGVKDVLKKRLKNYYKKQK [N9T] ... yes
VYKEIAITNGCINRMSKMELRAKLSEFKLETRGVKDVLKKRLKNYYKKQK [E18M] ... yes
VYKEIAITNGCINRMSKEELRAKKSEFKLETRGVKDVLKKRLKNYYKKQK [L24K] ... no
VYKEIAITNGCINRMSKEILRAKLSEFKLETRGVKDVLKKRLKNYYKKQK [E19I] ... no
VYKEIAITNGCINRMSKEELRAKLAEFKLETRGVKDVLKKRLKNYYKKQK [S25A] ... yes
VYKEIAITNGCINRMSKEELRAKLSEFKLETRGVHDVLKKRLKNYYKKQK [K35H] ... no
VYKEIAITNGCINRMSKEELRASLSEFKLETRGVKDVLKKRLKNYYKKQK [K23S] ... yes
VYKWIAITNGCINRMSKEELRAKLSEFKLETRGVKDVLKKRLKNYYKKQK [E4W] ... yes
VYKEIAITNGCINRMSKELLRAKLSEFKLETRGVKDVLKKRLKNYYKKQK [E19L] ... no
VYWEIAITNGCINRMSKEELRAKLSEFKLETRGVKDVLKKRLKNYYKKQK [K3W] ... no
VYKEIAITNGCINRMSKEELRAKLSEFKLETRGVPDVLKKRLKNYYKKQK [K35P] ... no
VYKEIAYTNGCINRMSKEELRAKLSEFKLETRGVKDVLKKRLKNYYKKQK [I7Y] ... yes
VYKEIAITNGCINRMSKEELMAKLSEFKLETRGVKDVLKKRLKNYYKKQK [R21M] ... no
VYKEIAITNGCDNRMSKEELRAKLSEFKLETRGVKDVLKKRLKNYYKKQK [I12D] ... no
VYKEIAITNGCINRMSKEELRAKLSEFKLETRGVKDVLMKRLKNYYKKQK [K39M] ... no
VYKEIAITNGCINRMSKEELRAKHSEFKLETRGVKDVLKKRLKNYYKKQK [L24H] ... no
VYKEIAITNGCINRMSKEELRSKLSEFKLETRGVKDVLKKRLKNYYKKQK [A22S] ... yes
VYKEIAITNGCINRMSKEELRAKLSEFKLETRGVKDVLEKRLKNYYKKQK [K39E] ... no
VYKEIAITNGCINRMSKEELRAKLSEFKLETRGVKDVGKKRLKNYYKKQK [L38G] ... no
VYAEIAITNGCINRMSKEELRAKLSEFKLETRGVKDVLKKRLKNYYKKQK [K3A] ... yes
VEKEIAITNGCINRMSKEELRAKLSEFKLETRGVKDVLKKRLKNYYKKQK [Y2E] ... yes
VYKEIAITNGCINRMSKVELRAKLSEFKLETRGVKDVLKKRLKNYYKKQK [E18V] ... yes
VYKEIAITNGCINRDSKEELRAKLSEFKLETRGVKDVLKKRLKNYYKKQK [M15D] ... no
VYKEIAITNGCINRMSKEELRAKLSEFKLEARGVKDVLKKRLKNYYKKQK [T31A] ... yes
VYKEIAITNGCINRMSKEELRAKLSEFKLEWRGVKDVLKKRLKNYYKKQK [T31W] ... yes
VYKEIAITNGCIKRMSKEELRAKLSEFKLETRGVKDVLKKRLKNYYKKQK [N13K] ... yes
VYKEIAITNGCINRMSKEELRAKLSEFKLETRGVKDVPKKRLKNYYKKQK [L38P] ... no
VYKEIAITNGCINHMSKEELRAKLSEFKLETRGVKDVLKKRLKNYYKKQK [R14H] ... yes
VYKEIAITNGCIPRMSKEELRAKLSEFKLETRGVKDVLKKRLKNYYKKQK [N13P] ... no
VYKEIAITNKCINRMSKEELRAKLSEFKLETRGVKDVLKKRLKNYYKKQK [G10K] ... yes
VYKEIAITNGCINRMSKEELRAKLMEFKLETRGVKDVLKKRLKNYYKKQK [S25M] ... yes
VYKEIAITNGCINRMSKEELRAKLSEFKLETRGLKDVLKKRLKNYYKKQK [V34L] ... yes
VYKEIAITNGCINRMSKEELRAKLSEFKLETRGVKRVLKKRLKNYYKKQK [D36R] ... yes
VYKEIAITNGCIYRMSKEELRAKLSEFKLETRGVKDVLKKRLKNYYKKQK [N13Y] ... no
VYKEIAITNGCINRMSKEELRAKNSEFKLETRGVKDVLKKRLKNYYKKQK [L24N] ... no
VYKEIAIYNGCINRMSKEELRAKLSEFKLETRGVKDVLKKRLKNYYKKQK [T8Y] ... no
VYKEIAITNGCINRMSREELRAKLSEFKLETRGVKDVLKKRLKNYYKKQK [K17R] ... yes
VYKEIAITNGCINRMSKEELRAKLSEFCLETRGVKDVLKKRLKNYYKKQK [K28C] ... yes
VYKEIFITNGCINRMSKEELRAKLSEFKLETRGVKDVLKKRLKNYYKKQK [A6F] ... yes
VYKEIAITNGCINRMSKEELRAKLSEFKLETRGVKDVLKKKLKNYYKKQK [R41K] ... no
VYCEIAITNGCINRMSKEELRAKLSEFKLETRGVKDVLKKRLKNYYKKQK [K3C] ... yes
VYKEIAITNGCINRMIKEELRAKLSEFKLETRGVKDVLKKRLKNYYKKQK [S16I] ... no
RYKEIAITNGCINRMSKEELRAKLSEFKLETRGVKDVLKKRLKNYYKKQK [V1R] ... yes
VYKEIAITNGCINRMSKEELRAKLSEFKLETRGVKDVLKKPLKNYYKKQK [R41P] ... no
VYKEIAITNGCINRMAKEELRAKLSEFKLETRGVKDVLKKRLKNYYKKQK [S16A] ... no
VYKEIAITNGCINRMSKEELSAKLSEFKLETRGVKDVLKKRLKNYYKKQK [R21S] ... no
VYKEIAFTNGCINRMSKEELRAKLSEFKLETRGVKDVLKKRLKNYYKKQK [I7F] ... yes
VYKEIAITNGCINRMSKEELRAKLSEGKLETRGVKDVLKKRLKNYYKKQK [F27G] ... no
VYKEIAITNGCINRMSQEELRAKLSEFKLETRGVKDVLKKRLKNYYKKQK [K17Q] ... no
VYKEIYITNGCINRMSKEELRAKLSEFKLETRGVKDVLKKRLKNYYKKQK [A6Y] ... yes
VYKEIAITNGCINRMSKEFLRAKLSEFKLETRGVKDVLKKRLKNYYKKQK [E19F] ... no
VYKEIAITNGCINRMSKEELRAGLSEFKLETRGVKDVLKKRLKNYYKKQK [K23G] ... no
VYKEIAITNGCINRMSKEELRAKRSEFKLETRGVKDVLKKRLKNYYKKQK [L24R] ... no
VYKEIAITNGCINRMSSEELRAKLSEFKLETRGVKDVLKKRLKNYYKKQK [K17S] ... yes
VYKEIAITNGCINRMSKEELRAKLSEFKLETRGVKKVLKKRLKNYYKKQK [D36K] ... yes
VYKEIAITNGCINRMSKEEMRAKLSEFKLETRGVKDVLKKRLKNYYKKQK [L20M] ... yes
VYKEIAITNGCINRMSKEELRAKLSEFKLFTRGVKDVLKKRLKNYYKKQK [E30F] ... no
IYKEIAITNGCINRMSKEELRAKLSEFKLETRGVKDVLKKRLKNYYKKQK [V1I] ... yes
VYKEIAITNGCINRMSKEELRAKLSEFKLNTRGVKDVLKKRLKNYYKKQK [E30N] ... yes
VYKEIAITNGCINRMSKEELRQKLSEFKLETRGVKDVLKKRLKNYYKKQK [A22Q] ... yes
VYKEIAITNGCINRMSKEELRAKLSEFKLETRGVKDVLIKRLKNYYKKQK [K39I] ... yes
GYKEIAITNGCINRMSKEELRAKLSEFKLETRGVKDVLKKRLKNYYKKQK [V1G] ... yes
VYKEIAITNGCINRMSKEELRAKLSEFKLETRGVKDVLKWRLKNYYKKQK [K40W] ... no
VYKEIAITNGCINRYSKEELRAKLSEFKLETRGVKDVLKKRLKNYYKKQK [M15Y] ... no
VYKEIAITNGCINRTSKEELRAKLSEFKLETRGVKDVLKKRLKNYYKKQK [M15T] ... no
VYKEIAITNGCINNMSKEELRAKLSEFKLETRGVKDVLKKRLKNYYKKQK [R14N] ... yes
VYKEIAITNGCINRMSKEELRAKLSEFKLETRGVKDVLYKRLKNYYKKQK [K39Y] ... no
VYKEIAITNGCINRQSKEELRAKLSEFKLETRGVKDVLKKRLKNYYKKQK [M15Q] ... no
VYKEIAITNGCINRMSKEELRAKLSEFKNETRGVKDVLKKRLKNYYKKQK [L29N] ... no
